target: 20S proteasome trypsin-like activity (Homo sapiens, UniProt Q99436); test: Isolated 20S proteasome, trypsin-like activity (Z-Leu-Ser-Thr-Arg-AMC); conditions: 0–100 μM, 1 h, 37 °C, pH 8.0
pIC50: −log10 of the molar value.
MEASUREMENT_TYPE: pIC50

Give recorded pIC50. COc1cc(/C=C/c2cc(/C=C/c3ccc(O)c(OC)c3)n(-c3ccccn3)n2)ccc1O.Cc1ccc(C(C)C)cc1.[Cl-].[Cl][Ru+] [[1]Cl, [Ru(p-cym)(HZPcurc)Cl]Cl]
4.20

Give recorded pIC50. Cc1ccc(C(C)C)cc1.Oc1ccc(/C=C/c2cc(/C=C/c3ccc(O)cc3)n(-c3ccccn3)n2)cc1.[Cl-].[Cl][Os+] [[4]Cl, [Os(p-cym)(HZPbdcurc)Cl]Cl]
4.21

Give recorded pIC50. COc1cc(/C=C/c2cc(/C=C/c3ccc(O)c(OC)c3)n(-c3ccccn3)n2)ccc1O.Cc1ccc(C(C)C)cc1.[Cl-].[Cl][Os+] [[2]Cl, [Os(p-cym)(HZPcurc)Cl]Cl]
4.29

====

target: dsDNA oligomer; assay: SPR biosensor binding to surface-anchored dsDNA oligomer; conditions: surface-blocked DNA oligomer
MEASUREMENT_TYPE: kdiss (s^–1)

Answered cases to consult:
Give recorded kdiss. COc1cc(/C=C/c2cc(/C=C/c3ccc(O)c(OC)c3)n(-c3ccccn3)n2)ccc1O.Cc1ccc(C(C)C)cc1.[Cl-].[Cl][Ru+] [[1]Cl, [Ru(p-cym)(HZPcurc)Cl]Cl]
0.009

Give recorded kdiss. Oc1ccc(/C=C/c2cc(/C=C/c3ccc(O)cc3)n(-c3ccccn3)n2)cc1 [HZPbdcurc]
0.031

Give recorded kdiss. Cc1ccc(C(C)C)cc1.Oc1ccc(/C=C/c2cc(/C=C/c3ccc(O)cc3)n(-c3ccccn3)n2)cc1.[Cl-].[Cl][Os+] [[4]Cl, [Os(p-cym)(HZPbdcurc)Cl]Cl]
0.010

Give recorded kdiss. Cc1ccc(C(C)C)cc1.Oc1ccc(/C=C/c2cc(/C=C/c3ccc(O)cc3)n(-c3ccccn3)n2)cc1.[Cl-].[Cl][Ru+] [[3]Cl, [Ru(p-cym)(HZPbdcurc)Cl]Cl]
0.02

(P) COc1cc(/C=C/c2cc(/C=C/c3ccc(O)c(OC)c3)n(-c3ccccn3)n2)ccc1O.Cc1ccc(C(C)C)cc1.[Cl-].[Cl][Os+] [[2]Cl, [Os(p-cym)(HZPcurc)Cl]Cl]
(Q) COc1cc(/C=C/c2cc(/C=C/c3ccc(O)c(OC)c3)n(-c3ccccn3)n2)ccc1O [HZPcurc]
Endpoint returns whichever of P and Q has the numerically higher kdiss. Mark your answer with the label of the selected entry.
Q

====

test system: MCF7-CR cisplatin-resistant breast cancer cells; test: MTT cytotoxicity assay, MCF7CR cells; type: cell-based, human; details: Homo sapiens, 72 h exposure, mean ± SD of three experiments
MEASUREMENT_TYPE: pIC50
Field pIC50 (float): negative decimal logarithm of the concentration in molar.

Give recorded pIC50. "Oc1ccc(/C=C/c2cc(/C=C/c3ccc(O)cc3)n(-c3ccccn3)n2)cc1"
4.59

Give recorded pIC50. "COc1cc(/C=C/c2cc(/C=C/c3ccc(O)c(OC)c3)n(-c3ccccn3)n2)ccc1O"
4.75

====

Each record here notes measured IC50.
Target: UniProtKB P28072
Assay: Isolated 20S proteasome, peptidyl glutamyl peptide hydrolase (caspase-like) activity (Z-Leu-Leu-Glu-AMC)
Conditions: 0–100 μM, 1 h, 37 °C, pH 8.0
Method: Proteasome inhibition by the compounds was evaluated with respect to three major activities of the 20S proteasome, namely, chymotrypsin-like, trypsin-like, and caspase-like activities. […]

Give recorded IC50. COc1cc(/C=C/c2cc(/C=C/c3ccc(O)c(OC)c3)n(-c3ccccn3)n2)ccc1O.Cc1ccc(C(C)C)cc1.[Cl-].[Cl][Ru+] [[1]Cl, [Ru(p-cym)(HZPcurc)Cl]Cl]
> 100 µM

Give recorded IC50. Cc1ccc(C(C)C)cc1.Oc1ccc(/C=C/c2cc(/C=C/c3ccc(O)cc3)n(-c3ccccn3)n2)cc1.[Cl-].[Cl][Ru+] [[3]Cl, [Ru(p-cym)(HZPbdcurc)Cl]Cl]
> 100 µM

Consider the record given below.
Give recorded IC50. "Oc1ccc(/C=C/c2cc(/C=C/c3ccc(O)cc3)n(-c3ccccn3)n2)cc1"
> 100 µM

Provenance of the data: paper PMC12153055
